Biological target: plasma kallikrein (PKa) (Homo sapiens)
Construct: purchased R & D 2497-SE
Sequence (P03952 391-638 limits assumed): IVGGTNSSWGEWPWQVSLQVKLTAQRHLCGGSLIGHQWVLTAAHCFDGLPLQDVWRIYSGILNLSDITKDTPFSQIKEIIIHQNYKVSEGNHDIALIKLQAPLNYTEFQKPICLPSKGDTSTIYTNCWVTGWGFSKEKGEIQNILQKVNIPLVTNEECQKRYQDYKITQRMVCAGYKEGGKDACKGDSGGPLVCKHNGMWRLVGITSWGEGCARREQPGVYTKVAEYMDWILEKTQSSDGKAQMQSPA
Sequence (P03952 20-390 partner limits assumed): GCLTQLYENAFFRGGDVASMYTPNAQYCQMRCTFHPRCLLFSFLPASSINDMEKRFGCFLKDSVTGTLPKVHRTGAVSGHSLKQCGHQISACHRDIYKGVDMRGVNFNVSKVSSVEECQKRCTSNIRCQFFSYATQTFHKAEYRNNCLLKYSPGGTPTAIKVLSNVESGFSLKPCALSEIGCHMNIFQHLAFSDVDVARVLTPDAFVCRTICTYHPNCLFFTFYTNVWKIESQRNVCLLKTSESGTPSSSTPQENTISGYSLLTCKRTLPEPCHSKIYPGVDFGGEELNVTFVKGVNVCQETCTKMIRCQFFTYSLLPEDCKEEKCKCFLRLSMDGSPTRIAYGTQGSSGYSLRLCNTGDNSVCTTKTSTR
Test: Inhibitory activity against plasma kallikrein in vitro (fluorescence intensity enzyme assay, Pro-Phe-Arg-AMC substrate)
Assay type: biochemical
Conditions: plasma kallikrein enzyme assay, Pro-Phe-Arg-AMC substrate; read-out: PKa IC50
pIC50: −log10 of the molar value.
So basically: pIC50 at 8 or higher? That is y. Lower than 8? That is n.

{"Molecule": "Cc1[nH]c(C(=O)NCc2cc3cnccc3[nH]2)c(C)c1Cc1ccc(Cn2ccccc2=O)cc1", "Label Class": "n"}
{"Molecule": "Nc1ccnc(CNC(=O)c2cn(Cc3ccc(Cn4ccccc4=O)cc3)nc2N2CC(F)(F)C2)c1F", "Label Class": "n"}
{"Molecule": "Cc1cc(Cn2cc(C(=O)NCc3ccc(C(=N)N)cc3)cn2)cc(C)c1CC1CC1", "Label Class": "y"}
{"Molecule": "Cn1cnc2c1CC[C@H]2NC(=O)c1nn(Cc2ccc(Cn3ccccc3=O)cc2)cc1C(F)F", "Label Class": "n"}
{"Molecule": "N=C(N)c1ccc(CNC(=O)c2cnn(Cc3ccc(CC4CC4)cc3)c2)cc1F", "Label Class": "y"}
{"Molecule": "COc1ccnc(CNC(=O)c2cn(Cc3ccc(Cn4ccccc4=O)cc3)nc2C2C(C)(C)C2(F)F)c1F (stereo not shown)", "Label Class": "y"}
{"Molecule": "Cc1cc(N)nc(C)c1CNC(=O)c1cnn(Cc2ccc(CC3CC3)cc2)c1", "Label Class": "y"}
{"Molecule": "COCc1nn(Cc2ccc(-n3ccccc3=O)cc2)cc1C(=O)NC1CCc2c1ncn2C (stereo not shown)", "Label Class": "n"}
{"Molecule": "CCn1c(CNC(=O)c2cn(Cc3ccc(Cn4ccccc4=O)cc3)nc2COC)cc2cnccc21", "Label Class": "n"}
{"Molecule": "O=C(NCc1cc2cnccc2[nH]1)c1nc(Cc2ccc(Cn3ccccc3=O)cc2)ns1", "Label Class": "n"}
{"Molecule": "C#Cc1nn(Cc2ccc(Cn3ccccc3=O)cc2)cc1C(=O)NCc1c(C)cc(N)nc1C", "Label Class": "n"}
{"Molecule": "COCc1nn(Cc2ccc(Cn3ccccc3=O)cc2)cc1C(=O)NCc1ncc2c(c1F)NCC2", "Label Class": "y"}
{"Molecule": "CCn1cnc2c1CC[C@@H]2NC(=O)c1cn(Cc2ccc(Cn3ccccc3=O)cc2)nc1COC", "Label Class": "n"}
{"Molecule": "COCc1nn(Cc2ccc(Cn3ccccc3=O)cc2)cc1C(=O)NCc1c(C)cc(N)nc1C", "Label Class": "y"}

###

The entries below come with measured IC50 values attached.
Target: plasma kallikrein (PKa) (Homo sapiens)
Construct: purchased R & D 2497-SE
Experiment: Inhibitory activity against plasma kallikrein in vitro (fluorescence intensity enzyme assay, Pro-Phe-Arg-AMC substrate)
Format: biochemical
Conditions: plasma kallikrein enzyme assay, Pro-Phe-Arg-AMC substrate; read-out: PKa IC50

{"Substance Smiles": "N=C(N)c1ccc(CNC(=O)c2cnn(Cc3ccc(CC4CC4)cc3)c2)cn1", "Operator": "=", "IC50, nM": 2.27}
{"Substance Smiles": "COc1ccnc(CNC(=O)c2cn(Cc3ccc(Cn4ccccc4=O)cc3)nc2N2CC(OC(C)C)C2)c1F", "Operator": "=", "IC50, nM": 4.57}
{"Substance Smiles": "COc1ccnc(CNC(=O)c2cn(Cc3ccc(Cn4ccccc4=O)cc3)nc2C2CN(C(=O)C(C)C)C2)c1F", "Operator": "=", "IC50, nM": 11.8}
{"Substance Smiles": "COCCn1c(CNC(=O)c2cn(Cc3ccc(Cn4ccccc4=O)cc3)nc2COC)cc2cnccc21", "Operator": ">", "IC50, nM": 1000}
{"Substance Smiles": "N=C(N)c1ccc(CNC(=O)c2cnn(Cc3cc(F)c(OCC4CC4)c(F)c3)c2)cc1", "Operator": "=", "IC50, nM": 1.98}
{"Substance Smiles": "COCc1nn(Cc2ccc(Cn3ccccc3=O)cc2)cc1C(=O)NCc1ccc2nccn2c1", "Operator": "=", "IC50, nM": 229}
{"Substance Smiles": "COc1ccnc(CNC(=O)c2cn(Cc3ccc(Cn4ccccc4=O)cc3)nc2N2CC[C@@H](OC)C2)c1F", "Operator": "=", "IC50, nM": 86}
{"Substance Smiles": "COCc1nn(Cc2ccc(Cn3ccccc3=O)cc2)cc1C(=O)NCc1ccc2c(N)nccc2c1", "Operator": "=", "IC50, nM": 0.19}
{"Substance Smiles": "N=C(N)c1ccc(CNC(=O)c2cnn(Cc3ccc(CC4CC4)nc3)c2)cc1", "Operator": "=", "IC50, nM": 0.56}
{"Substance Smiles": "COCc1cn(Cc2ccc(CN3CCCCC3=O)cc2)nc1C(=O)NCc1c(C)cc(N)nc1C", "Operator": "=", "IC50, nM": 5.7}
{"Substance Smiles": "COCc1nn(Cc2ccc(CN3CCCCC3=O)cc2)cc1C(=O)NCc1nccc(OC)c1F", "Operator": "=", "IC50, nM": 62.9}
{"Substance Smiles": "COCc1nn(Cc2ccc(CC3CC3)cc2)cc1C(=O)NCc1ccc(C(=N)N)cc1", "Operator": "=", "IC50, nM": 0.48}
{"Substance Smiles": "O=C(NCc1nccc2[nH]ccc12)c1cn(Cc2ccc(Cn3ccccc3=O)cc2)nc1C1COC1", "Operator": "=", "IC50, nM": 38.6}
{"Substance Smiles": "O=C(NCc1ncc2cc[nH]c2c1F)c1cn(Cc2ccc(Cn3ccccc3=O)cc2)nc1C1COC1", "Operator": "=", "IC50, nM": 2.23}
{"Substance Smiles": "CN(C)c1ccnc(CNC(=O)c2cn(Cc3ccc(Cn4ccccc4=O)cc3)nc2C2COC2)c1F", "Operator": "=", "IC50, nM": 1.92}
{"Substance Smiles": "COc1ccc(F)c(CNC(=O)c2cn(Cc3ccc(Cn4ccccc4=O)cc3)nc2COCCN2CCCC2)c1F", "Operator": "=", "IC50, nM": 9.8}

This collection of values is drawn from patent EP4737450A1.
